These data points were gathered from patent US20250129070A1.

- System: VCaP cells
- run description: VCaP growth inhibition assay
- Format: cell-based
- assay context: 30 pM R1881, 9 days, CTG
pIC50: −log10 of the molar value.
measured property: pIC50

Requested read-out: pIC50. Entry: CC(=O)N1CCc2c(c(-c3cccc4cc(-c5cnn(C)c5)ncc34)nn2C2CCN(CC3CCN(c4ncc(C(=O)NC5C(C)(C)C(Oc6ccc(C#N)c(Cl)c6)C5(C)C)cn4)CC3)CC2)C1 (stereo not drawn)
≥ 10.00

Requested read-out: pIC50. Entry: CC(=O)N1CCc2c(c(N3CCCc4cc(-c5cnn(C)c5)c(C)cc43)nn2C2CCN(C3CCC4(CC3)CN(c3ncc(C(=O)NC5C(C)(C)C(Oc6ccc(C#N)c(C)c6C)C5(C)C)cn3)C4)CC2)C1 (stereo not drawn)
9.00 to 10.00

Requested read-out: pIC50. Entry: CC(=O)N1CCc2c(c(N3CCCc4cc(-c5cnn(C)c5)c(C(F)F)cc43)nn2C2CCN(C(C)CC3CCN(c4ncc(C(=O)NC5C(C)(C)C(Oc6ccc(C#N)c(Cl)c6)C5(C)C)cn4)CC3)CC2)C1 (stereo not drawn)
≥ 10.00

Requested read-out: pIC50. Entry: COc1cc(OC2C(C)(C)C(NC(=O)c3ccc(N4CCC(CCc5ccc(-c6cc7cccc(-c8nn(C9CCOCC9)c9c8CN(C(C)=O)CC9)c7cn6)cn5)CC4)cc3)C2(C)C)ccc1C#N (stereo not drawn)
9.00 to 10.00

Requested read-out: pIC50. Entry: CNC(=O)N1CCc2c(c(N3CCCc4cc(-c5cnn(C)c5)c(C(F)F)cc43)nn2C2CCN(c3ncc(C(=O)NC4C(C)(C)C(Oc5ccc(C#N)c(Cl)c5)C4(C)C)cn3)CC2)C1 (stereo not drawn)
9.00 to 10.00

Requested read-out: pIC50. Entry: CNC(=O)N1CCc2c(c(N3CCCc4cc(-c5cnn(C)c5)c(C(F)F)cc43)nn2C2CCN(C(=O)COCC3CCN(c4ncc(C(=O)NC5C(C)(C)C(Oc6ccc(C#N)c(Cl)c6)C5(C)C)cn4)CC3)CC2)C1 (stereo not drawn)
≥ 10.00

Requested read-out: pIC50. Entry: COc1cc(OC2C(C)(C)C(NC(=O)c3ccc(N4CC(N5CCC(n6nc(N7CCCc8cc(-c9cnn(C)c9)c(C(F)F)cc87)c7c6CCN(C(C)=O)C7)CC5)C4)cc3)C2(C)C)ccc1C#N (stereo not drawn)
≥ 10.00

Requested read-out: pIC50. Entry: COc1cc(OC2C(C)(C)C(NC(=O)c3ccc(N4CC[C@H](N5CCC(n6nc(N7CCCc8cc(-c9cnn(C)c9)c(C(F)F)cc87)c7c6CCN(C(C)=O)C7)CC5)C4)cc3)C2(C)C)ccc1C#N (stereo partly drawn)
7.00 to 9.00

Requested read-out: pIC50. Entry: COc1cc(OC2C(C)(C)C(NC(=O)c3ccc(N4CCC(CCc5ccc(-c6cc7cccc(-c8nn(C9CCOCC9)c9c8CN(C(C)=O)CC9)c7cn6)cc5)CC4)cc3)C2(C)C)ccc1C#N (stereo not drawn)
9.00 to 10.00
